The reported numbers originate from a melting point compilation (Tetko et al.; mined from patent text by program, amines drawn as free bases though some values may be those of a salt).

experimental-readout: melting point (°C)
Report as a plain number; the unit °C is understood.

Lab note: measured melting point of Cc1cc(-c2cc(C(F)(F)F)n3ncc(C(=O)Nc4nc(C)c(S(N)(=O)=O)s4)c3n2)ccc1C(F)(F)F was 309

The value of melting point measured for the compound COC(=O)Cc1ccc(OCC(C)NCC(O)c2cccc(Cl)c2)c(O)c1 (stereo not given) turned out to be 68

---

experimental-readout: melting point

For CCOc1nc2c(c3ccccc13)c1cc(Cl)ccc1n2C the compound record lists melting point as 161 to 163 °C

Measured melting point, CC(C)CNc1c(N)c2nnnn2c2cnccc12 : 203 to 204 °C

Noted for COC(=O)C(C)(C)Cc1c(SC(C)(C)C)c2cc(OCc3ccc4cc(F)ccc4n3)ccc2n1Cc1ccc(Cl)cc1 : its melting point reads 165 to 167 °C

Please fill in: melting point reported for CC(=O)Nc1c(Cl)cnn1-c1c(F)c(F)c(C(F)(F)F)c(F)c1F = 45 to 47 °C

The recorded melting point for entry COC(=O)c1cnc(N2CCN(CC3CC3)C2=O)s1 equals 124 to 126 °C

---

experimental-readout: melting point

compound COC(=O)C12Cc3cc(Cl)ccc3C1=NNCO2 (stereo not given) , melting point observed: 124 to 127 °C

# melting point of COc1ccc2cc(CNCCNC(=O)C34CC5CC(CC(C5)C3)C4)oc2c1OC = 206 to 207 °C

# melting point (compound: O=C(Nc1ccc(N2CCOCC2)cc1)Nc1ccc(C(F)(F)F)cc1 ) is 228 to 232 °C

Entry O=C(O)c1cccc(-c2nccc(-c3ccc(F)cc3)n2)c1 ; melting point = 239 to 241 °C

Consider N#Cc1cnc2scc(Br)c2c1Br . Its measured melting point is 204 to 206 °C

For record CCOC(=O)C1=C(C)N(C(C)=O)C(c2cscn2)=NC1c1cccc(OC)c1 (stereo not given) the listed melting point is 130 to 131 °C

So for CN1CCCCC1CCc1ccccc1NC(=O)c1ccc(OC(C)(C)C)cc1 (stereo not given) , the logged melting point turned out to be 91 to 93.5 °C

melting point reported for this compound O=S1(=O)NC(C2CCCC2)Nc2ccc(S(=O)(=O)N3CCCCC3)cc21 (stereo not given) : 258 to 260 °C

Entry CCOC(=O)c1csc(NC(=O)c2ccccc2)n1 , melting point reported as 146 to 147 °C

In plain terms, CCCCOCCOc1ccc(-c2ccc3c(c2)C=C(C(=O)Nc2ccc(CCCn4cnnc4)cc2)CCN3CC(C)C)cc1 has a documented melting point of 165 to 167 °C

---

Assignment: determine reported melting point for the given compounds.

Reported melting point ( Nc1nc2cc(N)c(OC(F)(F)F)cc2s1 ) = 175 °C

// sample CC(=O)C(=C1NCCCS1)[N+](=O)[O-] , its melting point was 110 to 113 °C

Query CC(C)[C@H](NC(=O)N(C)Cc1cccnc1)C(=O)N[C@@H](Cc1ccccc1)[C@H](O)[C@@H](O)[C@H](Cc1ccccc1)NC(=O)[C@@H](NC(=O)N(C)Cc1ccccn1)C(C)C yields melting point of 92 to 94 °C

Please fill in: melting point reported for CN(C)S(=O)(=O)c1cccc(NC(=O)c2cnn3c(C(F)(F)F)cc(-c4ccc(C(F)(F)F)cc4)nc23)c1 = 210 °C

Quick note, melting point for CCOC(=O)CCCCn1c(=O)n(CCN2CCN(c3ccccc3OC)CC2)c(=O)c2sccc21 landed at 118 to 119 °C

Memo: CCSc1cc(C(C)C)ccc1N(CC)c1nc(C)cc(C)n1 , reported melting point: 128 to 130 °C

So, c1ccc(Cn2c(N3CCCCC3)nc3ccccc32)cc1 ? Its melting point was 84 to 87 °C

The value of melting point measured for the compound Cc1cccc(N2C(=O)NCc3cccnc32)c1 turned out to be 212 to 214 °C

The recorded melting point for COc1cc2c(cc1-c1ncco1)-c1c(-c3cccs3)c3c(n1CC2)C(=O)N(C(C)(C)C)CCC3 is 230 to 231 °C

---

For each record, write down the corresponding melting point.

For record Cc1ccc(S(=O)(=O)Nc2ccc(/C(CN3CCN(C)CC3)=N/O)cc2)cc1 the listed melting point is 192 to 193 °C

Data point: O=C(c1cccs1)c1cnn2c(-c3cccc(NCc4ccco4)c3)ccnc12 ; melting point = 124 to 128 °C

The compound listed as CNC1=NS(=O)(=O)N=C1NCCCOc1cccc(CN2CCCCC2)c1 shows melting point equal to 182 to 184 °C

The reported melting point of the compound CN(C)Cc1cc(C(N)=O)ccc1OCCN(C)Cc1ccc(Cl)cc1 was 123 to 124 °C

Recorded result, CCCCc1nc2cc(C(=O)OC)ccc2[nH]1 , melting point: 108 to 110 °C

---

Give measured melting point for each item. Keep answers brief.

Entry COC(=O)Cc1cc(-c2ccccc2)ccc1OCc1ccc(OCc2nc(-c3ccccc3)oc2C)cc1 , melting point reported as 111 to 112 °C

For this molecule ( CC(=O)NC1Cc2ccc(O)cc2C1 (stereo not given) ), measured melting point is 123 to 126 °C

The value of melting point measured for the molecule CCC[C@H](CO)Nc1nc(-c2ccc(Br)cc2)cs1 turned out to be 61 to 63 °C

Summary for this molecule, CCOc1ccc(-c2ccc3c(c2)C=C(C(=O)Nc2ccc(CN(C)C4CCOCC4)cc2)CCN3C)cc1 : melting point is 150 to 152 °C

Entry CN1C(=O)CCc2c1ccc(Sc1cccc(C3(C)CC(O)CCO3)c1)c2F (stereo not given) ; melting point = 141 to 142 °C

Per the records, this molecule ( COC(=N)NC(=O)NC(C)C ) has melting point equal to 64 to 67 °C

So for CC(C)(C)c1cc(-c2nn(C(=O)c3ccc(Cl)cc3)c3ncccc23)cc(C(C)(C)C)c1O , the logged melting point turned out to be 256 to 258 °C

Notebook: COCn1ccnc1C(O)(c1ccccc1)c1ccc(Cl)cc1Cl (stereo not given) , melting point read as 161 to 162 °C

Data point: CS(=O)(=O)c1cc(C(=O)O)cc(NCc2ccco2)c1Cl ; melting point = 216 °C

get_value(item= CCOC(=O)C1=C(C)Nc2cc[nH]c(=O)c2C1c1ccccc1F (stereo not given) , readout=melting point) returns 183 to 184 °C

---

experimental-readout: melting point

The compound identified as O=C(O)c1cc(C(=O)O)c2cc(Cc3ccc(F)cc3)cnc2c1O registered its melting point at 279 to 282 °C

melting point in this record for CC(=O)NC[C@H]1CN(c2ccc(N3C[C@H]4CN(C(C)=O)C[C@H]4C3)c(F)c2)C(=O)O1 : 168 to 170 °C

# melting point of O=C1NC(=O)c2c1c(-c1c(Cl)cccc1Cl)cc1c2c2cc(O)ccc2n1CCO = 254 to 257 °C

Value of melting point reported for the compound CC(C)(C)NC(=O)C(C#N)=NO is 218 to 219 °C

Record CC1(N)CN(c2cc3c(cc2F)c(=O)c(C(=O)O)cn3C2CC2)C1 , field melting point: 293 to 295 °C

So, O=C(CS)NCC(=O)NCCS ? Its melting point was 128 to 130 °C

---

experimental-readout: melting point

Quick note, melting point for COC(=O)c1c[nH]c(=O)c2ccccc12 landed at 258 to 260 °C

Form: compound = O=C(c1ccc(OCC2CO2)cc1)c1cccc2[nH]ccc12 (stereo not given) ; melting point = 96 °C

melting point measured on COC(=O)c1ccc(CNC(=O)[C@@H]2Cc3ccccc3N2S(=O)(=O)c2ccc(I)cc2)cc1 = 80 to 85 °C

Entry CCCNc1nc(=O)n(C2CC(N=[N+]=[N-])C(COC(C)=O)O2)cc1C (stereo not given) , melting point reported as 138 to 140 °C

What the record says about N#Cc1cnc2ccsc2c1Sc1ccc(Cl)cc1Cl : melting point is 126 to 128 °C

Consider O=C1C=CC(OC2CCCCC2)N1 (stereo not given) . Its measured melting point is 65 to 66 °C

Entry CCc1c(C(F)(F)F)nn(-c2ccc(S(N)(=O)=O)cc2)c1-c1ccc(OC)c(C)c1 ; melting point = 135 to 136 °C

Recorded result, CCCCCCc1cc(-c2nc(-c3cc(CCCCCC)c(O)cc3O)nc(-c3cc(CCCCCC)c(O)cc3O)n2)c(O)cc1O , melting point: > 250 °C

Form: compound = N#Cc1csc2ccccc12 ; melting point = 67 to 69 °C

melting point reported for this compound CC1CC(c2c(S(C)(=O)=O)ccc(C(=O)c3cnn(C)c3O)c2Cl)=NO1 (stereo not given) : 230 to 235 °C

The compound identified as CC(=O)Nc1cc(Cl)ccc1CCOC(C)=O registered its melting point at 129 °C

So for CC(=O)c1ccc(NCc2ccc3ccc4nc(C)[nH]c(=O)c4c3c2)cc1 , the logged melting point turned out to be > 235 °C

Data point: O=C(CCl)Nc1ccc2c(c1NC(=O)COc1ccccc1)C(=O)c1ccccc1C2=O ; melting point = 217 to 218 °C

melting point reading for COc1ccc(-c2sc3cc(OC)ccc3c2C(=O)c2ccc(/C=C/C(=O)O)cc2)cc1 : 204 to 207 °C

Short answer for O=C1CC(c2cccc(-n3ccnc3)c2)=Nc2cc(N3CCC(O)CC3)c(-c3ccc(F)cc3)cc2N1 : melting point was 238 to 240 °C

Value of measured melting point for the entry CCC(=O)c1cc2c(s1)CCCN(CCCCCl)C2=O : 91 to 92 °C

Lab note: measured melting point of CC(C)(C)OC(=O)N1CCC(C(=O)Nc2ccccc2Oc2ccc(Cl)cc2Cl)CC1 was 120 to 121 °C

melting point reported for this compound CC(CC(=O)O)C(=O)N1CCC[C@H]1C(=O)O (stereo not given in full) : 132 to 133 °C

// melting point lookup, compound = CC1Cc2nc(N)nc(Cl)c2C1 (stereo not given) , result: 182 to 183 °C

Short answer for COc1ccnc(C(=O)N[C@H]2COC(=O)[C@H](Cc3ccccc3)[C@@H](O)[C@H](C)OC2=O)c1OCc1ccccc1 : melting point was 110 to 114 °C
